Molecular target: panel of more than 300 wild-type and mutant kinases (313 kinase panel) (Homo sapiens, UniProt Q9H1R3)
Assay: Kinase profiling in a biochemical assay panel (mobility shift assays and ELISA), %-inhibition at 1 μM; selectivity entropy
Details: kinase skMLCK; 1 μM
Kindly state %-inhibition of skMLCK for each of the entries shown.
The reply should read as a number followed by its unit.

What value of measured %-inhibition of skMLCK is listed for COc1cc(Nc2c(C#N)cnc3cc(OCCCN4CCN(C)CC4)c(OC)cc23)c(Cl)cc1Cl [bosutinib] ? 71%

Next entry: Cc1ccc(C(=O)Nc2ccc(CN3CCN(C)CC3)c(C(F)(F)F)c2)cc1C#Cc1cnc2cccnn12 [ponatinib] 36%

Next entry: COc1cc2c(Nc3ccc(Br)cc3F)ncnc2cc1OCC1CCN(C)CC1 [vandetanib] 13%

Next entry: O=S(=O)(c1cccc2cnccc12)N1CCCNCC1 [fasudil] -1.56%

Next entry: COc1cc2nccc(Oc3ccc(NC(=O)C4(C(=O)Nc5ccc(F)cc5)CC4)cc3)c2cc1OC [cabozantinib] 12%

Next entry: CO[C@H]1C[C@@H]2CC[C@@H](C)[C@@](O)(O2)C(=O)C(=O)N2CCCC[C@H]2C(=O)O[C@H]([C@H](C)C[C@@H]2CC[C@@H](OCCO)[C@H](OC)C2)CC(=O)[C@H](C)/C=C(\C)[C@@H](O)[C@@H](OC)C(=O)[C@H](C)C[C@H](C)/C=C/C=C/C=C/1C [everolimus] -8%

Next entry: CCCS(=O)(=O)Nc1ccc(F)c(C(=O)c2c[nH]c3ncc(-c4ccc(Cl)cc4)cc23)c1F [vemurafenib] 53%

Next entry: Cc1cn(-c2cc(NC(=O)c3ccc(C)c(Nc4nccc(-c5cccnc5)n4)c3)cc(C(F)(F)F)c2)cn1 [nilotinib] -14%

Next entry: CS(=O)(=O)CCNCc1ccc(-c2ccc3ncnc(Nc4ccc(OCc5cccc(F)c5)c(Cl)c4)c3c2)o1 [lapatinib] 2.11%

Next entry: CC(C)(C)c1nc(-c2cccc(NS(=O)(=O)c3c(F)cccc3F)c2F)c(-c2ccnc(N)n2)s1 [dabrafenib] 0.52%

Next entry: CO[C@H]1C[C@@H]2CC[C@@H](C)[C@@](O)(O2)C(=O)C(=O)N2CCCC[C@H]2C(=O)O[C@H]([C@H](C)C[C@@H]2CC[C@@H](OC(=O)C(C)(CO)CO)[C@H](OC)C2)CC(=O)[C@H](C)/C=C(\C)[C@@H](O)[C@@H](OC)C(=O)[C@H](C)C[C@H](C)/C=C/C=C/C=C/1C [temsirolimus] -1.73%

Next entry: N#CC[C@H](C1CCCC1)n1cc(-c2ncnc3[nH]ccc23)cn1 [ruxolitinib] -4.71%

Next entry: CCN(CC)CCNC(=O)c1c(C)[nH]c(/C=C2\C(=O)Nc3ccc(F)cc32)c1C [sunitinib] 91%

Next entry: CNC(=O)c1cc(Oc2ccc(NC(=O)Nc3ccc(Cl)c(C(F)(F)F)c3)c(F)c2)ccn1 [regorafenib] 6.59%

Next entry: CC(=O)Nc1cccc(-n2c(=O)n(C3CC3)c(=O)c3c(Nc4ccc(I)cc4F)n(C)c(=O)c(C)c32)c1 [trametinib] -3.34%
